tested on: M. hapla eggs; assay: Meloidogyne hapla in vitro egg hatch assay; assay type: in vivo; conditions: 45 μM, 8 days; z-score vs 8 untreated DMSO wells
MEASUREMENT_NAME: Number of Hatched Eggs z-score

>>> df
                given_smiles  readout_value
0  CCc1cccc(-c2cn3ccsc3n2)c1         [3.64]
1    Cc1cn2cc(-c3cccs3)nc2s1         [3.64]
2     Fc1ccccc1-c1cn2ccsc2n1         [3.64]

----------
Reported minimal effective concentration values follow for various compounds
tested on: C. elegans; test: C. elegans dose-response (viability, minimum lethal concentration); assay type: in vivo, Caenorhabditis elegans; conditions: Caenorhabditis elegans, 72 h; L1 worms, 3 days at 20° C.; same values in ppm; read-out: Minimum Lethal Concentration (ppm)
Give a bare numeral; the unit µg/mL is implied.

Example results:
                   given_smiles         tgt  unit_spec  readout_value
0      Ic1cccc(-c2cn3ccsc3n2)c1  C. elegans      µg/mL            8.2
1     Clc1ccc(-c2cn3ccsc3n2)nc1  C. elegans      µg/mL           23.6
2      Fc1cccc(-c2cn3ccsc3n2)c1  C. elegans      µg/mL           21.8
3   Clc1ccc(-c2cn3ccsc3n2)cc1Cl  C. elegans      µg/mL            1.7
4    CCc1ccc(-c2nc3sccn3c2C)cc1  C. elegans      µg/mL           12.1
5  Cc1c(-c2ccc(Br)cc2)nc2sccn12  C. elegans      µg/mL            3.7
6       Brc1ccccc1-c1cn2ccsc2n1  C. elegans      µg/mL           27.9

// next item, minimal effective concentration requested
In: Suppose we examine the compound `CCc1ccc(-c2cn3cc(C)sc3n2)cc1` ; what minimal effective concentration value has been reported?
Out: 1.5

----------
tested on: M. incognita J2 larvae; test: Meloidogyne incognita in vitro larval mobility assay; format: in vivo; details: Meloidogyne incognita, 96 h, 45 μM, 4 days, replicate 2; read-out: Replicate 2 % Immobile
Strictly below 80% in pest or weed control at 45 µM: satisfied. Otherwise: not satisfied.

A selection of reference data follows.
>>> df
                         compound  discrete_label
0       Brc1cccc(-c2cn3ccsc3n2)c1   not satisfied
1  COCc1nn2cc(-c3ccc(Cl)cc3)nc2s1       satisfied
2      N#Cc1ccc(-c2cn3ccsc3n2)cc1       satisfied
3       Cc1cn2cc(-c3ccccc3F)nc2s1       satisfied
4       Brc1nn2cc(-c3ccccc3)nc2s1   not satisfied
5       Clc1cccc(-c2cn3ccsc3n2)c1   not satisfied

In: Does the reported pest or weed control at 45 µM of the following compound sit strictly below 80%? `O=Cc1c(-c2ccc(F)cc2)nc2sccn12`
Out: not satisfied

In: What about this compound? `Clc1ccc(-c2cn3ccsc3n2)nc1`
Out: satisfied

In: Repeat for the following compound: `CCOc1ccc(-c2nc3sccn3c2C=O)cc1`
Out: not satisfied

In: Try `Clc1ccccc1-c1cn2ccsc2n1` next.
Out: satisfied

In: Likewise for O=C(NCCc1ncc(C(F)(F)F)cc1Cl)c1ccccc1C(F)(F)F [Fluopyram, fluopyram, reference compound] ?
Out: not satisfied

----------
system: C. elegans; assay: C. elegans dose-response (viability, minimum lethal concentration); assay type: in vivo, Caenorhabditis elegans; conditions: Caenorhabditis elegans, 72 h; L1 worms, 3 days at 20° C.; same values in ppm; read-out: Minimum Lethal Concentration (ppm)
minimal effective concentration by entry:
// units = µg/mL; emit number, no label

>>> print(df.to_string())
                      given_smiles  unit_spec  readout_value
0  CC(C)(C)c1ccc(-c2cn3ccsc3n2)cc1      µg/mL           25.6
1     Cc1c(-c2cccc(Cl)c2)nc2sccn12      µg/mL           24.9
2     Cc1c(-c2ccc(Cl)cc2)nc2sccn12      µg/mL            3.1
3           Ic1ccccc1-c1cn2ccsc2n1      µg/mL           16.3
4      Cc1ccc(-c2cn3c(C)csc3n2)cc1      µg/mL           22.8
5     CCc1ccc(-c2cn3c(C)csc3n2)cc1      µg/mL           24.2
6        CCc1cccc(-c2cn3ccsc3n2)c1      µg/mL           22.8

Let us move to another entry and its minimal effective concentration.
In: Reported minimal effective concentration, compound `Cc1ccc(-c2cn3ccsc3n2)cc1` : ____
Out: 14.8

----------
Each entry below carries its reported Normalized root mass (relative to DMSO control).
system: tomato plants; test: Root mass of tomato plants in the soil infectivity assay; settings: 45 μM in soil, 8 weeks
Answer with the value's number alone.

Consider the worked cases shown below.
                  given_smiles  readout_value
0      Brc1ccccc1-c1cn2ccsc2n1           1.21
1  Cc1cn2cc(-c3cccc(F)c3)nc2s1           1.30
2     Fc1cccc(-c2cn3ccsc3n2)c1           1.28
3   Cc1cn2cc(-c3ccccc3Cl)nc2s1           1.30
4    Clc1ccc(-c2cn3ccsc3n2)nc1           1.56

In: Dear colleague, I am looking for the recorded Normalized root mass (relative to DMSO control) of the following molecule: `CCc1ccc(-c2cn3cc(C)sc3n2)cc1`
Out: 1.30

In: What would you report for `Cc1c(-c2ccc(Br)cc2)nc2sccn12` ?
Out: 1.45

In: And the next one, `Cc1csc2nc(-c3cccc(Cl)c3)cn12` ?
Out: 1.27

In: Moving on to the next molecule: `Cc1csc2nc(-c3cccc(F)c3)cn12`
Out: 1.15

----------
test system: M. incognita J2 larvae; experiment: Meloidogyne incognita in vitro larval mobility assay; type: in vivo; conditions: Meloidogyne incognita, 96 h, 45 μM, 4 days, replicate 1; read-out: Replicate 1 % Immobile
Listed below: pest or weed control at 45 µM values for each entry.
Field format: number, assumed %, no unit text.

>>> df
                                   compound  unit_spec  readout_value
0            c1cncc(-c2cn3ccsc3n2)c1 [I-45]          %           32.1
1           Fc1cccc(-c2cn3ccsc3n2)c1 [I-14]          %           98.2
2         Cc1cn2cc(-c3ccccc3Br)nc2s1 [I-41]          %           38.9
3  Cc1cn2cc(-c3ccc(OC(F)(F)F)cc3)nc2s1 [I-53]          %             39
4      FC(F)Oc1ccc(-c2cn3ccsc3n2)cc1 [I-63]          %            100
5     COCc1nn2cc(-c3ccc(F)cc3)nc2s1 [I-141]          %           31.9
6       Cc1ccc(-c2nc3sccn3c2C=O)cc1 [I-152]          %            100
7           Cc1ccc(-c2nc3sccn3c2C)cc1 [I-3]          %           56.7
8            Clc1ccccc1-c1cn2ccsc2n1 [I-27]          %             56

In: Value lookup for pest or weed control at 45 µM; key = Fc1ccc(-c2cn3nc(Br)sc3n2)cc1 [I-113]
Out: 100

----------
test system: C. elegans; experiment: C. elegans dose-response (viability, minimum lethal concentration); format: in vivo, Caenorhabditis elegans; conditions: Caenorhabditis elegans, 72 h; L1 worms, 3 days at 20° C.; lowest concentration at which at least 20% of worms die; read-out: Minimum Lethal Concentration
Attribute: minimal effective concentration
Field: numeric (µM). Do not append units.

In the examples that follow, each entry is paired with its recorded minimal effective concentration.
                                   compound                 measurement_name  readout_value
0                  Ic1cccc(-c2cn3ccsc3n2)c1  minimal effective concentration             25
1  Clc1ccc(-c2cn3ccoc3n2)cc1 [I-47, 6-(4-chlorophenyl)imidazo[2,1-b]oxazole]  minimal effective concentration             50
2              Cc1cn2cc(-c3cccc(Cl)c3)nc2s1  minimal effective concentration             25

In: Using the record for `Cc1ccc(-c2cn3c(C)csc3n2)cc1` , report its minimal effective concentration.
Out: 100

In: Param item: `Cc1csc2nc(-c3ccccc3Cl)cn12`
Out: 100

In: How about `Clc1cccc(-c2cn3ccsc3n2)c1` ?
Out: 100
